B1: Transcription elongation factor A N-terminal and central domain-containing protein, residues 30 to 77; numbered along this chain, Q8N8B7 (parent)
chain: LTELETIYVTKEHLQETDVVRAVYRVLKNCPSVALKKKAKCLLSKWKA

# Variants of: B1
# Assay text: abundance fitness (aPCA) (normalised: wild type 0, dead -1); higher = more abundant; growth selection in yeast, the domain comes from the species named
# Condition description: Homo sapiens
Measured metric: abundance fitness

Please give the documented abundance fitness of S44E
-0.262

Reference for the values: the Human Domainome abundance scans (Beltran et al. 2025)
